I'd appreciate it if you could supply IC50 values for the items below.
# TARGET: human TRPV3 (Homo sapiens)
# Construct: expressed in transfected cells
# Sequence (Q8NET8 whole entry): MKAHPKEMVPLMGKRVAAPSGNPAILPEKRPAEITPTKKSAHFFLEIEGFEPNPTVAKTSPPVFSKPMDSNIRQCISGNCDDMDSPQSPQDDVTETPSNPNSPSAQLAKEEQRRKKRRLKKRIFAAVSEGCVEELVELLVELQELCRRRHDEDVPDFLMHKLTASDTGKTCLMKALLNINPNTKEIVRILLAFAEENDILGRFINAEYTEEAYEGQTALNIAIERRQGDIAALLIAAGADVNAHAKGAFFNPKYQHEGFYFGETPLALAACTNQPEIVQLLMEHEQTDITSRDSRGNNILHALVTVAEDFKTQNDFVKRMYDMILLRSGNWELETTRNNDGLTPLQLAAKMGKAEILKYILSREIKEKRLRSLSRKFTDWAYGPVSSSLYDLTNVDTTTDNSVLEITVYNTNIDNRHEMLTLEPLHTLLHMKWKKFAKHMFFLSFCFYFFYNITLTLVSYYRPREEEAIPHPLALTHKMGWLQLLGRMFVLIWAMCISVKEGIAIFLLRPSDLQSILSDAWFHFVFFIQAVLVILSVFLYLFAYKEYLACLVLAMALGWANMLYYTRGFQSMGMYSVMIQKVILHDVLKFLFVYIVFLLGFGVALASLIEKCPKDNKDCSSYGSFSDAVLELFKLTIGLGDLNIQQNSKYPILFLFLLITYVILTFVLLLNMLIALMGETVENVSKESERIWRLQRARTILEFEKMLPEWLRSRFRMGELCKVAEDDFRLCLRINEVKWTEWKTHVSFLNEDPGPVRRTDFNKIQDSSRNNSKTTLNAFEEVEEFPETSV
# EXPERIMENTAL_DETAILS: In vitro antagonism of recombinant human TRPV3 activation (FLIPR Tetra calcium assay)
# Format: cell-based
# MEASUREMENT_CONDITIONS: HEK293 cells stably expressing human TRPV3; agonist 2-APB at 80 μM; actual measured value shown parenthetically; in most cases average of at least two runs; read-out: IC50
Kindly provide the numeric value in µM only, without the unit symbol.

Exercise: Return reported IC50; argument: OC(c1ccccn1)C1(c2cccc(C(F)(F)F)c2)CCCO1 (single isomer, unassigned) [Example 107]
Solution: 2.93

Exercise: Return reported IC50; argument: OC(c1ncccn1)C1(c2ccc(OC(F)(F)F)cc2)CCC1 (centres unmarked) [Example 31]
Solution: 3.08

Exercise: Return reported IC50; argument: OC(c1ccccn1)C1(c2ccc(OC(F)(F)F)cc2)CC(F)(F)C1 (centres unmarked) [Example 112]
Solution: 0.3

Exercise: Return reported IC50; argument: OC(c1ccccn1)C1(c2ccc(Cl)c(C(F)(F)F)c2)CC(F)(F)C1 (centres unmarked) [Example 138]
Solution: 0.83

Exercise: Return reported IC50; argument: OC(c1ccccn1)C1(c2cccc(OC(F)(F)F)c2)CCOCC1 (centres unmarked) [Example 66]
Solution: 1.52

Exercise: Return reported IC50; argument: OC(CC1(c2cccc(C(F)(F)F)c2)CCC1)c1ccccn1 (centres unmarked) [Example 74]
Solution: 0.41

Exercise: Return reported IC50; argument: OC(c1ccccn1)C1(c2ccc(OC(F)(F)F)cc2)CCOCC1 (centres unmarked) [Example 67]
Solution: 2.6

Exercise: Return reported IC50; argument: COC1CC(c2ccc(Cl)c(Cl)c2)([C@H](O)c2ccccn2)C1 (mixture of isomers) [Example 151]
Solution: 1.24

Exercise: Return reported IC50; argument: CC(c1ccc(F)cc1)C1(C(O)c2ccccn2)CCC1 (centres unmarked) [Example 46]
Solution: 13.7

Exercise: Return reported IC50; argument: OC(c1ccccn1)C1(c2cccc(F)c2)CCCO1 (single isomer, unassigned) [Example 100]
Solution: 0.83

---

I'd appreciate it if you could supply HUMAN MICROSOMAL STABILITY (% REMAINING AFTER 30 MINUTES) values for the items below.
# EXPERIMENTAL_DETAILS: In vitro human microsomal stability assay
# Format: in vitro ADME
# MEASUREMENT_CONDITIONS: human, microsomes, 0.5 h, 0.5 μM, pH 7.4
# Procedure: Test compounds were evaluated for metabolic stability in an in vitro rat microsomal stability assay using rat liver microsomes (Sprague-Dawley, from BD Biosciences) and/or an in vitro human microsomal stability assay using human liver microsomes (Xenotech). […] Incubations were carried out at 37° C. with a final incubation volume of 135 μL. […] A 1.5 μL aliquot of reduced nicotine adenine disphosphonucleotide (NADPH) (Chem-Impex Int'L Inc., Lot 12532024) was also added to the time-zero plates.

Exercise: Return reported HUMAN MICROSOMAL STABILITY (% REMAINING AFTER 30 MINUTES); argument: OC1CC(c2ccc(Cl)c(Cl)c2)(C(O)c2ccccn2)C1 (single isomer, unassigned) [Example 247]
Solution: 62%

Exercise: Return reported HUMAN MICROSOMAL STABILITY (% REMAINING AFTER 30 MINUTES); argument: OC(c1ccccn1)C1(c2cc(C(F)(F)F)ccn2)CCC1 (centres unmarked)
Solution: 37%

Exercise: Return reported HUMAN MICROSOMAL STABILITY (% REMAINING AFTER 30 MINUTES); argument: O[C@H](c1ccccn1)C1(c2ccnc(C(F)(F)F)c2)CCC1
Solution: 50%

Exercise: Return reported HUMAN MICROSOMAL STABILITY (% REMAINING AFTER 30 MINUTES); argument: Cc1ccccc1C1(C(O)c2ccccn2)CCC1 (centres unmarked)
Solution: 0.15%

Exercise: Return reported HUMAN MICROSOMAL STABILITY (% REMAINING AFTER 30 MINUTES); argument: O=C1CC(c2ccc(Cl)c(Cl)c2)([C@H](O)c2ccccn2)C1
Solution: 18%

Exercise: Return reported HUMAN MICROSOMAL STABILITY (% REMAINING AFTER 30 MINUTES); argument: O[C@H](c1ccccn1)[C@]1(c2ccc(C(F)(F)F)cc2)C[C@H](O)C1
Solution: >85%

Exercise: Return reported HUMAN MICROSOMAL STABILITY (% REMAINING AFTER 30 MINUTES); argument: NC1CCCC1C(O)C1(c2cccc(C(F)(F)F)c2)CCC1 (centres unmarked)
Solution: >85%

Exercise: Return reported HUMAN MICROSOMAL STABILITY (% REMAINING AFTER 30 MINUTES); argument: N[C@H]1CCC[C@@H]1[C@H](O)C1(c2ccc(OC(F)(F)F)cc2)CCC1
Solution: >85%
